Endpoint: MIC50. System: C. albicans (ATCC 24433). Items follow.
measureName: MIC50 (µg/mL)

compound | recordedNumber
COc1ccc(Oc2ccc(C=CC(=O)c3ccc(-n4ccnc4)cc3)cc2)cc1 | 1.56
CC1CC(C)CN(c2ccc(C=CC(=O)c3ccc(-n4ccnc4)cc3)cc2)C1 (centres unmarked) | 50
O=C(C=Cc1ccc(N2CCOCC2)cc1)c1ccc(-n2ccnc2)cc1 | 50
CC1CCCN(c2ccc(C=CC(=O)c3ccc(-n4ccnc4)cc3)cc2)C1 (centres unmarked) | 50
O=C(C=Cc1ccc(N2CCC(Cc3ccccc3)CC2)cc1)c1ccc(-n2ccnc2)cc1 | 50
CN(C)CCN1CCN(c2ccc(C=CC(=O)c3ccc(-n4ccnc4)cc3)cc2)CC1 | 50
O=C(C=Cc1ccc(N2CCCCC2)cc1)c1ccc(-n2ccnc2)cc1 | 50
COc1ccc(Sc2ccc(C=CC(=O)c3ccc(-n4ccnc4)cc3)cc2)cc1 | 1.56

###

Endpoint: MIC50. System: C. krusei (ATCC 6258). Items follow.

compound | MIC50
CCN1CCN(c2ccc(C=CC(=O)c3ccc(-n4ccnc4)cc3)cc2)CC1 | 12.5 µg/mL
O=C(C=Cc1ccc(N2CCCC2)cc1)c1ccc(-n2ccnc2)cc1 | 12.5 µg/mL
CN(C)CCN1CCN(c2ccc(C=CC(=O)c3ccc(-n4ccnc4)cc3)cc2)CC1 | 12.5 µg/mL
CN(C)CCCN1CCN(c2ccc(C=CC(=O)c3ccc(-n4ccnc4)cc3)cc2)CC1 | 12.5 µg/mL
OC(Cn1cncn1)(Cn1cncn1)c1ccc(F)cc1F [Fluconazole, reference compound] | 1.56 µg/mL
CC1CCCN(c2ccc(C=CC(=O)c3ccc(-n4ccnc4)cc3)cc2)C1 (stereo not drawn) | 25 µg/mL
CN1CCN(c2ccc(C=CC(=O)c3ccc(-n4ccnc4)cc3)cc2)CC1 | 25 µg/mL
CC1CC(C)CN(c2ccc(C=CC(=O)c3ccc(-n4ccnc4)cc3)cc2)C1 (stereo not drawn) | 25 µg/mL
Cc1ccc(Oc2ccc(C=CC(=O)c3ccc(-n4ccnc4)cc3)cc2)cc1 | 0.78 µg/mL

###

Endpoint: MIC50. System: C. krusei (ATCC 6258). Items follow.
measureName: MIC50 (µg/mL)

molecule | studyTarget | recordedNumber
COc1ccc(Oc2ccc(C=CC(=O)c3ccc(-n4ccnc4)cc3)cc2)cc1 [Compound 3c] | C. krusei (ATCC 6258) | 0.78
Cc1ccc(Sc2ccc(C=CC(=O)c3ccc(-n4ccnc4)cc3)cc2)cc1 [Compound 3b] | C. krusei (ATCC 6258) | 0.78
COc1ccc(Sc2ccc(C=CC(=O)c3ccc(-n4ccnc4)cc3)cc2)cc1 [Compound 3d] | C. krusei (ATCC 6258) | 1.56
O=C(C=Cc1ccc(N2CCCCC2)cc1)c1ccc(-n2ccnc2)cc1 [Compound 3g] | C. krusei (ATCC 6258) | 25
O=C(C=Cc1ccc(N2CCOCC2)cc1)c1ccc(-n2ccnc2)cc1 [Compound 3f] | C. krusei (ATCC 6258) | 12.5
CC(=O)N1CCN(c2ccc(OCC3COC(Cn4ccnc4)(c4ccc(Cl)cc4Cl)O3)cc2)CC1 (centres unmarked) [Ketoconazole, reference compound] | C. krusei (ATCC 6258) | 1.56
O=C(C=Cc1ccc(N2CCC(Cc3ccccc3)CC2)cc1)c1ccc(-n2ccnc2)cc1 [Compound 3k] | C. krusei (ATCC 6258) | 25
CC1CCN(c2ccc(C=CC(=O)c3ccc(-n4ccnc4)cc3)cc2)CC1 [Compound 3i] | C. krusei (ATCC 6258) | 12.5
